B1: TPR t1 (parent)
chain: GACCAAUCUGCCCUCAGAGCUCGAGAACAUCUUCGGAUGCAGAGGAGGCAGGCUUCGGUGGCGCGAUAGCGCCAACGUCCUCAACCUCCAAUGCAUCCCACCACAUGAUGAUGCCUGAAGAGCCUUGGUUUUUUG

Variants of: B1
protocol_text: polymerase ribozyme fitness, log enrichment relative to wild type (log ratio); higher = more active; in vitro selection for triplet polymerase activity
recorded_endpoint: polymerase ribozyme fitness (log ratio)

Take a look at these entries with their results.
GACCAAUGUGCCCUCAGAGCUCGAGAACAUCUUCGGAUGGAGAGGAGGCAGGCCUCGGUGGCGCGAUAGCGCCAACGUCCUCAACCUCCAAUGCAUCCUACCAUAUGAUGAUGCCUGAAGAGCCUUGGUUUUUUG [C8G C40G U54C C99U C104U] | -2.91
GACCAAUCUGCCCUCAGAGCUCGAGAACAUCUUCGGAUGUAGAGGGGGCAGGCUUCGGUGGCGCGAUAGCGCCAACGGCCUCAACCUCCAAUGCAUCCCACCACAUGAUGAUGCCUGAAGAGCCUUGGUUUUUUG [C40U A46G U78G] | -0.597
GACCAAUCUGCCCUCAGAGCUCGAGAAGAUCUUCGGAUGCAGAGGAGGCAGGCUUAGGUGGCGCGAUAGCGCCAACGUCCUCAACCUCCAAUGCAUCCCACCACAUGAUGAUGCCUGAAGAGCCUUGGUUUUUUG [C28G C56A] | -1.87
GACCAAUCUGCCCUCAGAGCUCGAGAACAUCUUCGGAUGCAGAGGAGGCAGGCUUCGGUGCCGCGAUAGCGCCAACGUCCUCAACCUCCAAUUCAUCCCACCACAUGAUGAUGCCUGAAGAGCCUUGGUAUUUUG [G61C G93U U130A] | -3.65
GACCAAUCUGCCCUUAGAGCUCGAGAACAUCUUCGGAUGCGGAGGAGGCAGGCUUCCGUGGUGCGAUAGCGCCAACGUCCUCAACCUCCAAUGCAUCCCACCACAUGAUGAAGCCUGAAGAACCUUGGUUUUUUA [C15U A41G G57C C62U U112A G122A G135A] | -1.87
GACCAAUCUGCCCUCAGAGCUCGAGAACAUCUUCGGAUGCAGAGAAGGCAGGCUUCGGUGGCGCGAUAGCGCCAACGUCCUCAACCUCCAAUCCAUCCCACCACAUGAUGAUGCCUGAAGAGCCUUGGUUUUUUG [G45A G93C] | -1.29
GACCAAUCUGCCCUCAGAGCUCGAGAACAUCUUCGGAUGCAGAGGAGGCAGGCUUCGGUGGCACGAUAGCGCCAACGUCCUCAACCUCCAAUGCAUCCCACCACAUGACGAUGCCUGAAGAGCCUUGGUUUUUUG [G63A U109C] | -2.75
GACCUAUCUGCCCUCAGAGCUCGAGAACAUCUUCGGAUGCAGAGGAGGCAGGCUUCGGUGGCGCGAUAGCGCUAACGUCCUCAACCUCCAAUGCAUCCCACCACAUGAUGAUGCCUGAAGAACCUUGGAUUUUUG [A5U C73U G122A U129A] | -2.07
GACCAAUCUGCCCUCAGAGCUCGAGAACAUCUUCGGAUGCAGAGGAGGCAGUCUUCGGUGGCGUGAUAGCGCCAACGUCCUCAACCUCCAAUGCAUCCCACCACAUGAUGAUGCCCGAAGAGCCUUGGUUUUUUG [G52U C64U U116C] | -2.49
GACCAAUCUGCCCUCAGAGCUCGAGAACAUCUUCGGAUGCAGAGGAGGCAGGCUUCGGUGGCGCGAUAGCGCCAACGUCCUCAACCUCCAAUGCAUCCCACCACAUUAUGUUGCCUGAAGAGCCUUGGUUUUUUG [G107U A111U] | -4.03

Enquiry: Query (variant): GACCAAUCUGCCCUCAGAGCACGAGAACAUCUUCGGAUGCAGAGGAGGCAGGCUUCGGUGGCGCGAUAGCGCCAACGUCCUCAACCUCCAAUGCAUCCCACCACAAGAUGAUGCCUGAAGAGCCUUGGUUUAUUG [U21A U106A U132A] ; field requested: polymerase ribozyme fitness (log ratio)
Return: -0.182

Enquiry: Please look up its polymerase ribozyme fitness (log ratio): GACCAAUCUGCCCUCAGAGCUCGAGAACAUCUUCGGAUGCAGAGGAGGCAGGCUUCGGUGGCGCGAUAGCGCCAACGUCCUCAACCUCCAAUGCAUCCCACCACAUGAUGAUACCUGAUGAGCCUAGGUUUUUUG [G113A A119U U126A]
Return: -3.89

Enquiry: I'd like to know its polymerase ribozyme fitness (log ratio). The variant in question is GACCAAUCUGCCCUCAGAGCUCGAGAACAUCUUCGGAUGCAGAGGAGGCAGGCUUCGGUGGCGCGAUAGCGCCAACGUCCUCAACCUCCCAUGCAUACGACCACAUGAUGAUACCUGAAGAUCCUUGGUUUUUUG [A90C C97A C99G G113A G122U]
Return: -7.3

Enquiry: Give its polymerase ribozyme fitness (log ratio) value. Item: GACCAAUCUGCCCUCAGAGCUCGAGAACAUCUUCGGAUGCAGAGGAGGCAGGCUUCGGUGGCGCGAUAGGGCCAACGUCCUCAACCUCCAAUGCAUCCCACCACAUGAUGAUUCCUGAAGAGCCUUGGUUUUUUG [C70G G113U]
Return: -4.42

Enquiry: Query: polymerase ribozyme fitness (log ratio); subject: GACCAAUCUGCCCUCAGAGCUCGAGAACAUCUUCGGAUGCCGAUGAGGCAGGCUUCGGUGGCGCGAUAGCGCCAACGUCCUCAACCUCCAAUGCAUCCCACCACAUGAUGAUGCAUGAAGAUCCUUGGUGUUUUG [A41C G44U C115A G122U U130G]
Return: -4.66

Enquiry: Looking for the measured polymerase ribozyme fitness (log ratio) of GACCAAUCUGCCCUCAGAGCUCGAGAACAUCUUCGGAUGCAGAGGAGGCAGGCUUCGGUGGCGCGUUAGCGCCAACGUCCUCAUCCUCCAAUGCAUCCCACCACAUGAUCAUGCCUGAAGAGCCUUGGUCUUUUG [A66U A84U G110C U130C] , can you help?
Return: -5.62

Enquiry: So what does the record say about polymerase ribozyme fitness (log ratio) for GACCAAUUUGCCCUCAGAGCUGGAGAACAUCUUCGGAUCCGGAGGAGGCAGGCUUCGGUGGCACGAUAGCGCCAACGUCCUCAACCUCCAAUGCAUCCCACCACAUGAUGAUGCCUGUAGAGCCUUGGUUUUUUG [C8U C22G G39C A41G G63A A118U] ?
Return: -3.78

Value source: the RNAGym collection of RNA variant scans (doi:10.1073/pnas.2313332121)
